method_notes: xn = mol fraction of the nth substance listed
condition_info: 296.1 K; 101.3 kPa; x2 = 0.4; x1 = 0.2
± gives the uncertainty stated by the source.
Each entry below lists one item and its recorded viscosity value.

[[record]]
molecule = "[Cl-].[Cl-].[Co+2] + CCCCCCCC[N+](CCCCCCCC)(CCCCCCCC)CCCCCCCC.[Br-] + Cc1ccc(C(C)C)c(O)c1"
observed_result = "79000 mPa·s"

[[record]]
molecule = "[Cl-].[Cl-].[Co+2] + CCCCCCCCCCCCCC[P+](CCCCCC)(CCCCCC)CCCCCC.[Cl-] + CCCCCCCC(=O)O"
observed_result = "8500 ± 2600 mPa·s"

[[record]]
molecule = "[Cl-].[Cl-].[Co+2] + CCCCCCCC[N+](CCCCCCCC)(CCCCCCCC)CCCCCCCC.[Br-] + CCCCC/C=C\\C/C=C\\CCCCCCCC(=O)O"
observed_result = "9700 ± 3100 mPa·s"

[[record]]
molecule = "[Cl-].[Cl-].[Co+2] + CCCCCCCC[N+](C)(CCCCCCCC)CCCCCCCC.[Cl-] + CCCCCCCC(=O)O"
observed_result = "428 ± 36 mPa·s"

[[record]]
molecule = "[Cl-].[Cl-].[Co+2] + CCCCCCCC[N+](CCCCCCCC)(CCCCCCCC)CCCCCCCC.[Br-] + CCCCCCCC(=O)O"
observed_result = "5700 ± 1400 mPa·s"


Shift focus to the following entry.
Task item: Which measured viscosity value corresponds to [Cl-].[Cl-].[Co+2] + CCCCCCCC[N+](CCCCCCCC)(CCCCCCCC)CCCCCCCC.[Br-] + CCCCCCCCCC(=O)O ?
Reply: 55000 mPa·s

###

method_notes: xn = mol fraction of the nth substance listed
condition_info: 308.15 K; 101 kPa; x2 = 0.0009002; x1 = 1.99e-06
readout: electrical conductivity
Please give the number followed by its unit.

Consider the following illustrative entries.
[[record]]
compound = "CCCCCCCCCCCCCCCC[n+]1ccccc1.O=C([O-])c1ccccc1O + NCC(=O)O + O"
observed_result = "0.00141 S/m"

[[record]]
compound = "CCCCCCCCCCCCCCCC[n+]1ccccc1.O=C([O-])c1ccccc1O + NCC(=O)NCC(=O)O + O"
observed_result = "0.00366 S/m"

[[record]]
compound = "CCCCCCCCCCCCCCCC[n+]1ccccc1.O=C([O-])c1ccccc1O + CC(C)[C@H](N)C(=O)O + O"
observed_result = "0.00194 S/m"


Task item: Which measured electrical conductivity value corresponds to CCCCCCCCCCCCCCCC[n+]1ccccc1.O=C([O-])c1ccccc1O + CC(C)C[C@H](N)C(=O)O + O ?
Reply: 0.00229 S/m

###

Each entry below lists one item and its recorded electrical conductivity value.
method_notes: xn = mol fraction of the nth substance listed
condition_info: 303.15 K; 101 kPa; x2 = 0.0009002; x1 = 1.99e-06
Numeric answer only, unit S/m assumed.

[[record]]
molecule = "CCCCCCCCCCCCCCCC[n+]1ccccc1.O=C([O-])c1ccccc1O + CC(C)C[C@H](N)C(=O)O + O"
readout = "electrical conductivity"
unit_of_measurement = "S/m"
observed_result = 0.00207

[[record]]
molecule = "CCCCCCCCCCCCCCCC[n+]1ccccc1.O=C([O-])c1ccccc1O + NCC(=O)NCC(=O)O + O"
readout = "electrical conductivity"
unit_of_measurement = "S/m"
observed_result = 0.00318

[[record]]
molecule = "CCCCCCCCCCCCCCCC[n+]1ccccc1.O=C([O-])c1ccccc1O + NCC(=O)O + O"
readout = "electrical conductivity"
unit_of_measurement = "S/m"
observed_result = 0.00127


Shift focus to the following entry.
Task item: Which measured electrical conductivity value corresponds to CCCCCCCCCCCCCCCC[n+]1ccccc1.O=C([O-])c1ccccc1O + CC(C)[C@H](N)C(=O)O + O ?
Reply: 0.00175

###

method_notes: xn = mol fraction of the nth substance listed
condition_info: 303.15 K; 101 kPa; x2 = 0.001799; x1 = 9.1e-07
readout: electrical conductivity (S/m)
Numeric answer only, unit S/m assumed.

Consider the following illustrative entries.
[[record]]
compound = "CCCCCCCCCCCCCCCC[n+]1ccccc1.O=C([O-])c1ccccc1O + CC(C)C[C@H](N)C(=O)O + O"
observed_result = 0.00224

[[record]]
compound = "CCCCCCCCCCCCCCCC[n+]1ccccc1.O=C([O-])c1ccccc1O + C[C@H](N)C(=O)O + O"
observed_result = 0.000953


Task item: Which measured electrical conductivity value corresponds to CCCCCCCCCCCCCCCC[n+]1ccccc1.O=C([O-])c1ccccc1O + NCC(=O)O + O ?
Reply: 0.00091

Task item: Which measured electrical conductivity value corresponds to CCCCCCCCCCCCCCCC[n+]1ccccc1.O=C([O-])c1ccccc1O + NCC(=O)NCC(=O)O + O ?
Reply: 0.0041

###

method_notes: xn = mol fraction of the nth substance listed
condition_info: 303.15 K; 101 kPa; x2 = 0.0009002; x1 = 1.63e-06
Everything with electrical conductivity lower than 0.002 S/m is 0 (no); everything else, including exactly 0.002 S/m, is 1 (yes).

Would you please look over these solved cases?
[[record]]
compound = "CCCCCCCCCCCCCCCC[n+]1ccccc1.O=C([O-])c1ccccc1O + NCC(=O)O + O"
class_assignment = "0 (no)"

[[record]]
compound = "CCCCCCCCCCCCCCCC[n+]1ccccc1.O=C([O-])c1ccccc1O + C[C@H](N)C(=O)O + O"
class_assignment = "0 (no)"

[[record]]
compound = "CCCCCCCCCCCCCCCC[n+]1ccccc1.O=C([O-])c1ccccc1O + NCC(=O)NCC(=O)O + O"
class_assignment = "1 (yes)"

[[record]]
compound = "CCCCCCCCCCCCCCCC[n+]1ccccc1.O=C([O-])c1ccccc1O + CC(C)[C@H](N)C(=O)O + O"
class_assignment = "0 (no)"


Next, consider the following compound.
Task item: Hi team, for CCCCCCCCCCCCCCCC[n+]1ccccc1.O=C([O-])c1ccccc1O + CC(C)C[C@H](N)C(=O)O + O , is the recorded electrical conductivity at or above 0.002 S/m?
Reply: 0 (no)

###

Each entry below lists one item and its recorded electrical conductivity value.
method_notes: xn = mol fraction of the nth substance listed
condition_info: 298.15 K; 101 kPa; x2 = 0.001799; x1 = 9.1e-07
Numeric answer only, unit S/m assumed.

Consider the following illustrative entries.
[[record]]
compound = "CCCCCCCCCCCCCCCC[n+]1ccccc1.O=C([O-])c1ccccc1O + NCC(=O)O + O"
unit_of_measurement = "S/m"
observed_result = 0.000791

[[record]]
compound = "CCCCCCCCCCCCCCCC[n+]1ccccc1.O=C([O-])c1ccccc1O + NCC(=O)NCC(=O)O + O"
unit_of_measurement = "S/m"
observed_result = 0.00345

[[record]]
compound = "CCCCCCCCCCCCCCCC[n+]1ccccc1.O=C([O-])c1ccccc1O + CC(C)C[C@H](N)C(=O)O + O"
unit_of_measurement = "S/m"
observed_result = 0.00201


Shift focus to the following entry.
Task item: Which measured electrical conductivity value corresponds to CCCCCCCCCCCCCCCC[n+]1ccccc1.O=C([O-])c1ccccc1O + C[C@H](N)C(=O)O + O ?
Reply: 0.000837

###

method_notes: xn = mol fraction of the nth substance listed
condition_info: 293.15 K; 101 kPa; x2 = 0.0009002; x1 = 1.99e-06
readout: electrical conductivity (S/m)
Numeric answer only, unit S/m assumed.

[[record]]
compound = "CCCCCCCCCCCCCCCC[n+]1ccccc1.O=C([O-])c1ccccc1O + CC(C)[C@H](N)C(=O)O + O"
unit_of_measurement = "S/m"
observed_result = 0.00138


Task item: Which measured electrical conductivity value corresponds to CCCCCCCCCCCCCCCC[n+]1ccccc1.O=C([O-])c1ccccc1O + CC(C)C[C@H](N)C(=O)O + O ?
Reply: 0.00163

Task item: Which measured electrical conductivity value corresponds to CCCCCCCCCCCCCCCC[n+]1ccccc1.O=C([O-])c1ccccc1O + NCC(=O)NCC(=O)O + O ?
Reply: 0.00228

Task item: Which measured electrical conductivity value corresponds to CCCCCCCCCCCCCCCC[n+]1ccccc1.O=C([O-])c1ccccc1O + NCC(=O)O + O ?
Reply: 0.000997

###

method_notes: xn = mol fraction of the nth substance listed
condition_info: 293.15 K; 101 kPa; x2 = 0.0009002; x1 = 1.63e-06
Each entry below lists one item and its recorded electrical conductivity value.
Numeric answer only, unit S/m assumed.

[[record]]
compound = "CCCCCCCCCCCCCCCC[n+]1ccccc1.O=C([O-])c1ccccc1O + NCC(=O)O + O"
unit_of_measurement = "S/m"
observed_result = 0.000841

[[record]]
compound = "CCCCCCCCCCCCCCCC[n+]1ccccc1.O=C([O-])c1ccccc1O + C[C@H](N)C(=O)O + O"
unit_of_measurement = "S/m"
observed_result = 0.000904

[[record]]
compound = "CCCCCCCCCCCCCCCC[n+]1ccccc1.O=C([O-])c1ccccc1O + CC(C)C[C@H](N)C(=O)O + O"
unit_of_measurement = "S/m"
observed_result = 0.00147

[[record]]
compound = "CCCCCCCCCCCCCCCC[n+]1ccccc1.O=C([O-])c1ccccc1O + CC(C)[C@H](N)C(=O)O + O"
unit_of_measurement = "S/m"
observed_result = 0.00122


Shift focus to the following entry.
Task item: Which measured electrical conductivity value corresponds to CCCCCCCCCCCCCCCC[n+]1ccccc1.O=C([O-])c1ccccc1O + NCC(=O)NCC(=O)O + O ?
Reply: 0.00215
